These data points were gathered from patent US11963971B2.

assay_remarks: Phase 3 randomized cross over study: 5-day decitabine AUC equivalence, oral ASTX727 vs IV decitabine
Type: in vivo
condition_info: human, plasma, 20 mg/m2; Phase 3 primary analysis, paired population N=123; IV decitabine 20 mg/m^2; read-out: Decitabine 5-day AUC0-24, IV DEC Geo. LSM
measure_name: AUC(0-t) (ng·h/mL)
Numbers only, in ng·h/mL.

Given the molecule Nc1ncn([C@H]2C[C@H](O)[C@@H](CO)O2)c(=O)n1 [IV DEC, 5-aza-2′-deoxycytidine] , what is its reported AUC(0-t)?
865

====

assay_remarks: ASTX727 Phase 1 dose escalation study: plasma decitabine pharmacokinetics (AUC)
Assay type: in vivo, human
condition_info: human, plasma, iv, 20 mg/m2, Cohort 2, N=6; IV decitabine 20 mg/m^2, day 1; read-out: AUC0-t by day, IV D1, Geometric Mean (gCV %)
measure_name: AUC(0-t) (ng·h/mL)
Answers are plain numbers, in ng·h/mL.

I am curious: what AUC(0-t) value has been reported for Nc1ncn([C@H]2C[C@H](O)[C@@H](CO)O2)c(=O)n1 ?
170

====

assay_remarks: ASTX727 Phase 1 dose escalation study: plasma decitabine pharmacokinetics (AUC)
Assay type: in vivo, human
condition_info: human, plasma, iv, 20 mg/m2, Cohort 4, N=6; IV decitabine 20 mg/m^2, day 1; read-out: AUC0-t by day, IV D1, Geometric Mean (gCV %)
measure_name: AUC(0-t) (ng·h/mL)
One number for each entry, in ng·h/mL.

What value of measured AUC(0-t) is listed for Nc1ncn([C@H]2C[C@H](O)[C@@H](CO)O2)c(=O)n1 ?
153

====

assay_remarks: ASTX727 Phase 2 randomized cross over dose confirmation: plasma decitabine 5-day AUC, oral vs IV
Format: in vivo
condition_info: human, 20 mg/m^2, Phase 2 FDC tablet stage, N=24, 20 mg/m^2 IV infusion (1 h) of decitabine, read-out: Decitabine 5-day AUC0-t, IV Geo. LSM
measure_name: AUC(0-t) (ng·h/mL)
Numbers only, in ng·h/mL.

Item under review: Nc1ncn([C@H]2C[C@H](O)[C@@H](CO)O2)c(=O)n1 . Reported AUC(0-t)?
745

====

assay_remarks: ASTX727 Phase 1 dose escalation study: plasma decitabine pharmacokinetics (AUC)
Assay type: in vivo, human
condition_info: human, plasma, iv, 20 mg/m2, Cohort 1, N=5 (extreme outlier excluded); IV decitabine 20 mg/m^2, day 1; read-out: AUC0-t by day, IV D1, Geometric Mean (gCV %)
measure_name: AUC(0-t) (ng·h/mL)
Numbers only, in ng·h/mL.

Param item = Nc1ncn([C@H]2C[C@H](O)[C@@H](CO)O2)c(=O)n1 ; retrieve measured AUC(0-t).
138

====

assay_remarks: ASTX727 Phase 1 dose escalation study: plasma decitabine pharmacokinetics (AUC)
Type: in vivo, human
condition_info: human, plasma, po, 20 mg, Cohort 3, N=6; oral DEC 20 mg alone, day −3; read-out: AUC0-t by day, D −3 (DEC alone), Geometric Mean (gCV %)
measure_name: AUC(0-t) (ng·h/mL)
Give bare numbers, in ng·h/mL.

For Nc1ncn([C@H]2C[C@H](O)[C@@H](CO)O2)c(=O)n1 , what is its reported AUC(0-t)?
7.9

====

assay_remarks: ASTX727 Phase 1 dose escalation study: plasma decitabine pharmacokinetics (AUC)
Type: in vivo, human
condition_info: human, plasma, po, 40 mg, Cohort 4, N=6; oral DEC 40 mg alone, day −3; read-out: AUC0-t by day, D −3 (DEC alone), Geometric Mean (gCV %)
measure_name: AUC(0-t) (ng·h/mL)
Give bare numbers, in ng·h/mL.

Which AUC(0-t) is listed for Nc1ncn([C@H]2C[C@H](O)[C@@H](CO)O2)c(=O)n1 ?
29.8
